Target: T1, CaBdf1 BD2 (GST-tagged, wild-type) (Candida albicans (strain SC5314 / ATCC …, UniProt Q5A4W8))
T1 chain: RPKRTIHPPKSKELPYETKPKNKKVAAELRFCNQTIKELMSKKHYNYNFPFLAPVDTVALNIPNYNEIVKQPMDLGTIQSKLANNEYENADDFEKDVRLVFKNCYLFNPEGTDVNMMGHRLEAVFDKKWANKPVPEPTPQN
Assay: histone peptide array (Active Motif MODified), 1 uM GST-tagged bromodomain, anti-GST detection, normalized mean intensity
Ends that are not written are not given here. Me2a = not defined here
Note to self: binding score under 0.003 means true (1), ties and anything higher get false (0).

BINDER | LABEL_CLASS
AR(me2s)TK(Me)QTAR(me2s)K(me3)STGGKAPRKQ | false (0)
AR(Me2a)TK(Me2)QTARKSTGGKAPRKQ (reading uncertain) | false (0)
SGRGKGGKGLGKGGAKRHR (S G Rme2s G Kac G G Kac G L G Kac G G A K R H R) | false (0)
SGRGKGGKGLGKGGAKRHR (S G R G K G G Kac G L G K G G A Kac R H R) | false (0)
PDPAKSAPAPKKGSKKAVT (not fully specified) [H2B 1-19] | true (1)
ARTKQTARKSTGGKAPRKQ (A R T Kme1 Q T A Rme2a Kme3 S T G G K A P R K Q) | false (0)

Source of measurements: paper PMC5454392
